# studySystem: hMAO-B (Homo sapiens)
# Sequence (P27338 1-520): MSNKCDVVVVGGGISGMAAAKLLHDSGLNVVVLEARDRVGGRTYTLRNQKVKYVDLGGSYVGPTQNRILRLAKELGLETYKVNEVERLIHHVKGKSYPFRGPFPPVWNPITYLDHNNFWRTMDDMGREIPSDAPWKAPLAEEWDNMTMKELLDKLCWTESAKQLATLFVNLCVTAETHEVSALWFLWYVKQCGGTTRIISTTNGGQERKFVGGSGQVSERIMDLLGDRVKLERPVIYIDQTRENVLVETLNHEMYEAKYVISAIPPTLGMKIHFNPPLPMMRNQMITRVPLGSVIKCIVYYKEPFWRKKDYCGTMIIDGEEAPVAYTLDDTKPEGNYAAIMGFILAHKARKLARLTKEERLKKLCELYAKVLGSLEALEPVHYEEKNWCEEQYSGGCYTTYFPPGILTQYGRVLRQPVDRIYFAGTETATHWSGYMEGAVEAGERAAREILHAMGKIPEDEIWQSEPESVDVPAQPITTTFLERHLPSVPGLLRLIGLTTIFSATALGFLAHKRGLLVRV
# Type: biochemical
# appliedConditions: mean ± S.D., three experiments in triplicate
IC50 by entry:
recordedMetric: IC50 (µM)

{"compound": "C[n+]1[c]([Au-][O]C(=O)[C@@H]2CCCN2C(=O)OC(C)(C)C)n(CC(O)c2ccccc2)c2ccccc21 (some centres unmarked)", "operatorSymbol": "=", "valueMeasured": 2.1}
{"compound": "C[n+]1c(-c2ccccc2)c(-c2ccccc2)n(CC(O)c2ccccc2)[c]1[Ag-][O]C(=O)[C@@H]1CCCN1C(=O)OC(C)(C)C (some centres unmarked)", "operatorSymbol": ">", "valueMeasured": 25}
{"compound": "C[n+]1c(-c2ccccc2)c(-c2ccccc2)n(CC(O)c2ccccc2)[c]1[Au-][O]C(=O)[C@@H]1CCCN1C(=O)OC(C)(C)C (some centres unmarked)", "operatorSymbol": "=", "valueMeasured": 4.75}
{"compound": "C[n+]1[c]([Ag-][O]C(=O)[C@@H]2CCCN2C(=O)OC(C)(C)C)n(CC(O)c2ccccc2)c2ccccc21 (some centres unmarked)", "operatorSymbol": "=", "valueMeasured": 10.4}
{"compound": "C[n+]1ccn(CC(O)c2ccccc2)[c]1[Au-][O]C(=O)[C@@H]1CCCN1C(=O)OC(C)(C)C (some centres unmarked)", "operatorSymbol": "=", "valueMeasured": 3.78}
{"compound": "C[n+]1c(Cl)c(Cl)n(CC(O)c2ccccc2)[c]1[Au-][O]C(=O)[C@@H]1CCCN1C(=O)OC(C)(C)C (some centres unmarked)", "operatorSymbol": "=", "valueMeasured": 1.94}
{"compound": "C[n+]1c(Cl)c(Cl)n(CC(O)c2ccccc2)[c]1[Ag-][O]C(=O)[C@@H]1CCCN1C(=O)OC(C)(C)C (some centres unmarked)", "operatorSymbol": "=", "valueMeasured": 9.82}
{"compound": "C[n+]1ccn(CC(O)c2ccccc2)[c]1[Ag-][O]C(=O)[C@@H]1CCCN1C(=O)OC(C)(C)C (some centres unmarked)", "operatorSymbol": ">", "valueMeasured": 25}
